- System Under Test: Vasopressin V2 receptor (Homo sapiens, UniProt P30518)
- Sequence (P30518 whole entry): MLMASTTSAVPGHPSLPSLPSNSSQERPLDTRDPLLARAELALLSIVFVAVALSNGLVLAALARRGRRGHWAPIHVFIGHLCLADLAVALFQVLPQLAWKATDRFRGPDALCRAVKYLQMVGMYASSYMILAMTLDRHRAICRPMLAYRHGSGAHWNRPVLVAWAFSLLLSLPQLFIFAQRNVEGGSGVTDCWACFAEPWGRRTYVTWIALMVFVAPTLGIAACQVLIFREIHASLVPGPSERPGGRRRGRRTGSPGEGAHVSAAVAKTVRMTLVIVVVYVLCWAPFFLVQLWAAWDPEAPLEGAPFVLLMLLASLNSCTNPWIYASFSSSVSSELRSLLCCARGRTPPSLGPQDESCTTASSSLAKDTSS
- Assay: Agonist activity at recombinant human V2 receptor expressed in HEK293 cells measured after 5 hrs by cAMP response element driven luciferase reporter gene assay
Recorded Endpoint: EC50 (nM)
Express the result in nM but write the number alone.

Example molecules with recorded EC50:
CC(C)[C@@H]1NC(=O)[C@H](Cc2cccs2)NC(=O)[C@H](Cc2ccc(O)cc2)NC(=O)CCCSC[C@@H](C(=O)N2CCC[C@H]2C(=O)N[C@H](CCCNC(=N)N)C(=O)NCc2ccccc2)NC(=O)[C@H](CC(N)=O)NC1=O
0.26
CC(C)NC(=O)[C@@H](CCCNC(=N)N)NC(=O)[C@@H]1CCCN1C(=O)[C@@H]1CSCCCC(=O)N[C@@H](Cc2ccc(Cl)cc2)C(=O)N[C@@H](Cc2cccs2)C(=O)N[C@@H](C(C)C)C(=O)N[C@@H](CC(N)=O)C(=O)N1
0.45

# next molecule below
Short answer for CC(C)[C@@H]1NC(=O)[C@H](Cc2cccs2)NC(=O)[C@H](Cc2ccc(Cl)cc2)NC(=O)CCCSC[C@@H](C(=O)N2CSC[C@H]2C(=O)N[C@H](CCCNC(=N)N)C(=O)NCCc2cccs2)NC(=O)[C@H](CC(N)=O)NC1=O : EC50 was 0.17

###

- Assay: Protein binding in rat plasma at 200 to 1000 ng/ml measured after 15 mins by UC-LC/MS/MS analysis
- Format: ADME, cell-free
- Condition Notes: read-out: PPB (converted)
Numbered stars: 1 amine (or outer) side, 2 acyl side, 3 side chain; on linkers, the order of the positions; unused ones are H or OH. Bridge positions count the residues as written; N and C are the ends. Square brackets hold non-standard residues; d marks the D form. Peptide text beside a SMILES is read from it. * marks the point of attachment. Phe(4-Cl) = N[C@@H](Cc1ccc(Cl)cc1)C(=O)O; Phe(4-F) = N[C@@H](Cc1ccc(F)cc1)C(=O)O; 2Thi = N[C@@H](Cc1cccs1)C(=O)O; X2 = N=C(N)NCCC[C@H](CO)N*; hCys = N[C@@H](CCS)C(=O)O; Agmatine = N=C(N)NCCCCN*; Thz = O=C(O)[C@@H]1CSCN1; X1 = O=C(CCC[*:2])[*:1]; X3 = O=C(CC[*:2])[*:1]; NH(CH2)4NH2 = NCCCCN*
// reported fraction unbound at […] per item
The answer should be written as a number, with no unit following it.

CC(C)[C@@H]1NC(=O)[C@H](Cc2cccs2)NC(=O)[C@H](Cc2ccc(O)cc2)NC(=O)CCSCC[C@@H](C(=O)N2CCC[C@H]2C(=O)N[C@@H](CO)CCCNC(=N)N)NC(=O)[C@H](CC(N)=O)NC1=O (Y[2Thi]VN[hCys]P-X2; linker N-5 via X3)
0.74
CC(C)[C@@H]1NC(=O)[C@H](Cc2cccs2)NC(=O)[C@H](Cc2ccc(O)cc2)NC(=O)CCCSC[C@@H](C(=O)N2CCC[C@H]2C(=O)N[C@H](CCCNC(=N)N)C(=O)NCc2ccccc2)NC(=O)[C@H](CC(N)=O)NC1=O
0.55
CC(C)[C@@H]1NC(=O)[C@H](Cc2cccs2)NC(=O)[C@H](Cc2ccc(O)cc2)NC(=O)CCCSC[C@@H](C(=O)N2CCC[C@H]2C(=O)NCCCCN)NC(=O)[C@H](CC(N)=O)NC1=O (Y[2Thi]VNCP-{NH(CH2)4NH2}; linker N-5 via X1)
0.58

Turning now to a further record.
Memo: CC(C)[C@@H]1NC(=O)[C@H](Cc2ccc(F)cc2)NC(=O)[C@H](Cc2ccc(Cl)cc2)NC(=O)CCCSC[C@@H](C(=O)N2CSC[C@H]2C(=O)NCCCCNC(=N)N)NC(=O)[C@H](CC(N)=O)NC1=O ([Phe(4-Cl)][Phe(4-F)]VNC[Thz]-Agmatine; linker N-5 via X1) , reported fraction unbound at […]: 0.04

###

Recorded CL by entry
- Assay: Non-renal clearance in nephrectomized Sprague-Dawley rat at 0.1 mg/kg, iv administered as cassette dose by LC-MS/MS analysis
- Assay type: ADME, organism-based
- Condition Notes: in vivo
Numbered stars: 1 amine (or outer) side, 2 acyl side, 3 side chain; on linkers, the order of the positions; unused ones are H or OH. Bridge positions count the residues as written; N and C are the ends. Square brackets hold non-standard residues; d marks the D form. Peptide text beside a SMILES is read from it. * marks the point of attachment. Phe(4-Et) = CCc1ccc(C[C@H](N)C(=O)O)cc1; 2Thi = N[C@@H](Cc1cccs1)C(=O)O; X2 = N=C(N)NCCC[C@H](CO)N*; X1 = O=C(CCC[*:2])[*:1]; NH(CH2)4NH2 = NCCCCN*

CC(C)CNC(=O)[C@@H](CCCNC(=N)N)NC(=O)[C@@H]1CCCN1C(=O)[C@@H]1CSCCCC(=O)N[C@@H](Cc2ccc(Cl)cc2)C(=O)N[C@@H](Cc2cccs2)C(=O)N[C@@H](C(C)C)C(=O)N[C@@H](CC(N)=O)C(=O)N1
63%

Reported CL of CC(C)[C@@H]1NC(=O)[C@H](Cc2cccs2)NC(=O)[C@H](Cc2ccc(O)cc2)NC(=O)CCCSC[C@@H](C(=O)N2CCC[C@H]2C(=O)NCCCCN)NC(=O)[C@H](CC(N)=O)NC1=O (Y[2Thi]VNCP-{NH(CH2)4NH2}; linker N-5 via X1) : 18%

According to the records, this molecule CCNC(=O)[C@@H](CCCNC(=N)N)NC(=O)[C@@H]1CCCN1C(=O)[C@@H]1CSCCCC(=O)N[C@@H](Cc2ccc(Cl)cc2)C(=O)N[C@@H](Cc2cccs2)C(=O)N[C@@H](C(C)C)C(=O)N[C@@H](CC(N)=O)C(=O)N1 displays CL of 49%

Lookup result for CCc1ccc(C[C@@H]2NC(=O)CCCSC[C@@H](C(=O)N3CCC[C@H]3C(=O)N[C@@H](CO)CCCNC(=N)N)NC(=O)[C@H](CC(N)=O)NC(=O)[C@H](C(C)C)NC(=O)[C@H](Cc3cccs3)NC2=O)cc1 ([Phe(4-Et)][2Thi]VNCP-X2; linker N-5 via X1) ; measured CL: 80%

###

- Assay: Protein binding in rat plasma at 200 to 1000 ng/ml measured after 15 mins by UC-LC/MS/MS analysis
- Assay type: ADME, cell-free
- Condition Notes: read-out: PPB (converted)
Numbered stars: 1 amine (or outer) side, 2 acyl side, 3 side chain; on linkers, the order of the positions; unused ones are H or OH. Bridge positions count the residues as written; N and C are the ends. Square brackets hold non-standard residues; d marks the D form. Peptide text beside a SMILES is read from it. * marks the point of attachment. Phe(4-Cl) = N[C@@H](Cc1ccc(Cl)cc1)C(=O)O; 2Thi = N[C@@H](Cc1cccs1)C(=O)O; X4 = N=C(N)NCCC[C@@H](CO)N*; X1 = O=C(CCC[*:2])[*:1]; NEt2 = CCN(CC)*
Recorded Endpoint: fraction unbound at […]
// response body must contain only the number

Previously resolved entries follow.
CC(C)NC(=O)[C@@H](CCCNC(=N)N)NC(=O)[C@@H]1CCCN1C(=O)[C@@H]1CSCCCC(=O)N[C@@H](Cc2ccc(Cl)cc2)C(=O)N[C@@H](Cc2cccs2)C(=O)N[C@@H](C(C)C)C(=O)N[C@@H](CC(N)=O)C(=O)N1
0.15
CC(C)[C@@H]1NC(=O)[C@H](Cc2cccs2)NC(=O)[C@H](Cc2ccc(Cl)cc2)NC(=O)CCCSC[C@@H](C(=O)N2CCC[C@H]2C(=O)N[C@H](CO)CCCNC(=N)N)NC(=O)[C@H](CC(N)=O)NC1=O ([Phe(4-Cl)][2Thi]VNCP-X4; linker N-5 via X1)
0.19

Now for the compound whose fraction unbound at […] we want.
What the record says about CCN(CC)C(=O)[C@@H](CCCNC(=N)N)NC(=O)[C@@H]1CCCN1C(=O)[C@@H]1CSCCCC(=O)N[C@@H](Cc2ccc(Cl)cc2)C(=O)N[C@@H](Cc2cccs2)C(=O)N[C@@H](C(C)C)C(=O)N[C@@H](CC(N)=O)C(=O)N1 ([Phe(4-Cl)][2Thi]VNCP[dR]-NEt2; linker N-5 via X1) : fraction unbound at […] is 0.08

###

- System Under Test: Vasopressin V2 receptor (Homo sapiens)
- Assay: Agonist activity at recombinant human V2 receptor expressed in HEK293 cells measured after 5 hrs by cAMP response element driven luciferase reporter gene assay
Numbered stars: 1 amine (or outer) side, 2 acyl side, 3 side chain; on linkers, the order of the positions; unused ones are H or OH. Bridge positions count the residues as written; N and C are the ends. Square brackets hold non-standard residues; d marks the D form. Peptide text beside a SMILES is read from it. * marks the point of attachment. 2Thi = N[C@@H](Cc1cccs1)C(=O)O; X4 = N=C(N)NCCC[C@@H](CO)N*; X2 = N=C(N)NCCC[C@H](CO)N*; hCys = N[C@@H](CCS)C(=O)O; X1 = O=C(CCC[*:2])[*:1]; X3 = O=C(CC[*:2])[*:1]; NH(CH2)4NH2 = NCCCCN*
Property: pEC50; scope: individual compounds
Units for pEC50: none; it is -log10 of a concentration expressed in mol/L.

Field: example entries. Status: answers known.
CCNC(=O)[C@@H](CCCNC(=N)N)NC(=O)[C@@H]1CSCN1C(=O)[C@@H]1CCSCCC(=O)N[C@@H](Cc2ccc(Cl)cc2)C(=O)N[C@@H](Cc2cccs2)C(=O)N[C@@H](C(C)C)C(=O)N[C@@H](CC(N)=O)C(=O)N1
9.96
CC(C)[C@@H]1NC(=O)[C@H](Cc2cccs2)NC(=O)[C@H](Cc2ccc(O)cc2)NC(=O)CCSCC[C@@H](C(=O)N2CCC[C@H]2C(=O)N[C@@H](CO)CCCNC(=N)N)NC(=O)[C@H](CC(N)=O)NC1=O (Y[2Thi]VN[hCys]P-X2; linker N-5 via X3)
10.10
CC(C)[C@@H]1NC(=O)[C@H](Cc2cccs2)NC(=O)[C@H](Cc2ccc(O)cc2)NC(=O)CCCSC[C@@H](C(=O)N2CCC[C@H]2C(=O)N[C@H](CO)CCCNC(=N)N)NC(=O)[C@H](CC(N)=O)NC1=O (Y[2Thi]VNCP-X4; linker N-5 via X1)
10.00

So for CCNC(=O)[C@@H](CCCNC(=N)N)NC(=O)[C@@H]1CCCN1C(=O)[C@@H]1CCSCCC(=O)N[C@@H](Cc2ccc(Cl)cc2)C(=O)N[C@@H](Cc2cccs2)C(=O)N[C@@H](C(C)C)C(=O)N[C@@H](CC(N)=O)C(=O)N1 , the logged pEC50 turned out to be 9.72

Value of pEC50 reported for the compound CC(C)[C@@H]1NC(=O)[C@H](Cc2cccs2)NC(=O)[C@H](Cc2ccc(O)cc2)NC(=O)CCCSC[C@@H](C(=O)N2CCC[C@H]2C(=O)NCCCCN)NC(=O)[C@H](CC(N)=O)NC1=O (Y[2Thi]VNCP-{NH(CH2)4NH2}; linker N-5 via X1) is 9.72
